Target: DLG4_2, P78352
Sequence (P78352 155-259): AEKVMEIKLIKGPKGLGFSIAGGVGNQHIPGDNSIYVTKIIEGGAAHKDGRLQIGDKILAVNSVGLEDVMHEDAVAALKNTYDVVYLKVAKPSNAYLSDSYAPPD
Test: holdup assay
Parameters: key: below the threshold = too weak to quantify, mostly under pKd 3.1 to 4
Settings: plain residues with an end cap or a label only (N-terminal biotin on a linker: ado-ado)
# pKd >= 4 gives Met, anything below gives Not met

RHGSCVETSL [TMEM151B, Q8IW70] ... Met
QMNQTLPVQV [EPHB3, P54753] ... Not met
QGPVETESVV [SLC45A4, Q5BKX6] ... Met

Threshold query (pKd >= 4) on EVNETDDTKM [KCNJ1, P48048]
Not met
